- recorded_conditions: in ethyl acetate, 313.15 K
quantity_name: solubility (mole fraction)

>>> print(df.to_string())
                         compound  assay_result
0  CSCCC(NC(C)=O)C(=O)O (racemic)       0.00936

###

- recorded_conditions: in 2-butanone, 313.15 K
quantity_name: solubility (mole fraction)

In [3]: df
Out[3]:
                         molecule  assay_result
0  CSCCC(NC(C)=O)C(=O)O (racemic)        0.0327

###

- recorded_conditions: in methanol, 303.15 K
quantity_name: solubility (mole fraction)

>>> df
                         compound  assay_result
0  CSCCC(NC(C)=O)C(=O)O (racemic)         0.141

###

- recorded_conditions: in dichloromethane, 293.15 K
quantity_name: solubility (mole fraction)

>>> print(df.to_string())
                         molecule  assay_result
0  CSCCC(NC(C)=O)C(=O)O (racemic)       0.00036

###

- recorded_conditions: in water, 283.15 K
quantity_name: solubility (mole fraction)

>>> print(df.to_string())
                         compound  assay_result
0  CSCCC(NC(C)=O)C(=O)O (racemic)       0.00589

###

- recorded_conditions: in isopropanol, 293.15 K
quantity_name: solubility (mole fraction)

>>> print(df.to_string())
                         compound               quantity_name  assay_result
0  CSCCC(NC(C)=O)C(=O)O (racemic)  solubility (mole fraction)        0.0436

###

- recorded_conditions: in ethanol, 313.15 K
quantity_name: solubility (mole fraction)

                         compound               quantity_name  assay_result
0  CSCCC(NC(C)=O)C(=O)O (racemic)  solubility (mole fraction)         0.135

###

- recorded_conditions: in methanol, 283.15 K
quantity_name: solubility (mole fraction)

In [3]: df
Out[3]:
                         molecule               quantity_name  assay_result
0  CSCCC(NC(C)=O)C(=O)O (racemic)  solubility (mole fraction)        0.0794

###

- recorded_conditions: in acetonitrile, 313.15 K
quantity_name: solubility (mole fraction)

In [3]: df
Out[3]:
                         compound  assay_result
0  CSCCC(NC(C)=O)C(=O)O (racemic)         0.016

###

- recorded_conditions: in n-propanol, 293.15 K
quantity_name: solubility (mole fraction)

In [3]: df
Out[3]:
                         compound               quantity_name  assay_result
0  CSCCC(NC(C)=O)C(=O)O (racemic)  solubility (mole fraction)        0.0511

###

- recorded_conditions: in n-propanol, 303.15 K
quantity_name: solubility (mole fraction)

                         molecule               quantity_name  assay_result
0  CSCCC(NC(C)=O)C(=O)O (racemic)  solubility (mole fraction)         0.077

###

- recorded_conditions: in n-propanol, 323.15 K
quantity_name: solubility (mole fraction)

                         compound  assay_result
0  CSCCC(NC(C)=O)C(=O)O (racemic)          0.15

###

- recorded_conditions: in 1,4-dioxane, 323.15 K
quantity_name: solubility (mole fraction)

>>> df
                         molecule  assay_result
0  CSCCC(NC(C)=O)C(=O)O (racemic)         0.167

The reported numbers originate from BigSolDB 2.1.
